- testedSystem: BCL-XL (Homo sapiens, UniProt Q07817)
- Construct: endogenous in cells; host or cells: MOLT-4
- Sequence (Q07817 whole entry): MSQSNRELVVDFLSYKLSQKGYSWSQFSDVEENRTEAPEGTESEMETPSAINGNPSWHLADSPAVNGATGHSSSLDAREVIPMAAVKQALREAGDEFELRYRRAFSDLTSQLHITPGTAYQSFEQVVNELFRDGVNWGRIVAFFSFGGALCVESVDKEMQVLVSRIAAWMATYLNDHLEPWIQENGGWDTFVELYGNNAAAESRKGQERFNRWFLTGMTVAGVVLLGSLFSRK
- assayMethodText: BCL-XL degradation assay, western blot in MOLT-4 cells, 16 h
- Format: cell-based
- conditionsUsed: western blot, MOLT-4 cells, 16 h; read-out: Bcl-xL WB in MOLT-4 degradation 16 h: Average Dmax %
metric: Dmax

Cc1ncsc1-c1ccc(CNC(=O)[C@@H]2C[C@@H](O)CN2C(=O)[C@@H](NC(=O)C2(F)CC2)C(C)(C)C)c(OCCCCCS(=O)(=O)NC(=O)c2nc(N3CCc4cccc(C(=O)Nc5nc6ccccc6s5)c4C3)ccc2-c2cnn(CC34CC5CC(CC(C5)C3)C4)c2C)c1 [I-121] :: > 75%

// below: Dmax requested for another compound
[in] Hello, please tell me recorded Dmax for this one: Cc1ncsc1-c1ccc([C@H](C)NC(=O)[C@@H]2C[C@@H](O)CN2C(=O)[C@@H](NC(=O)C2CCN(c3ccc(S(=O)(=O)NC(=O)c4nc(N5CCc6cccc(C(=O)Nc7nc8ccccc8s7)c6C5)ccc4-c4cnn(CC5CCCCC5)c4C)cc3)CC2)C(C)(C)C)cc1 [I-195]
[out] > 75%
